target: wildtype HIV-1 protease (Human immunodeficiency virus type 1 group M subtype B)
pIC50: −log10 of the molar value.
Please mark yes (1) if the recorded pIC50 is equal to or greater than 9, and no (0) if it falls below.

A selection of reference data follows.
                         compound_structure  class_assignment
0  COC(=O)N[C@H](C(=O)Nc1ccccc1CC[C@@H]1CN[C@H](c2nc3ccc(O)nc3[nH]2)CO1)C(c1ccccc1)c1ccccc1            no (0)
1  COC(=O)N[C@H](C(=O)Nc1ccccc1CC[C@@H]1CN[C@H](c2cnn[nH]2)CO1)C(c1ccccc1)c1ccccc1            no (0)
2  COC(=O)N[C@H](C(=O)Nc1ccccc1CC[C@@H]1CN[C@H](c2cc3cc(C)ccc3[nH]2)CO1)C(c1ccccc1)c1ccccc1            no (0)
3  COC(=O)N[C@H](C(=O)Nc1cncc(F)c1CC[C@@H]1CN[C@H](c2nc3cc(C)c(C)cc3[nH]2)CO1)C(c1ccccc1)c1ccccc1           yes (1)
4  O=C(C[C@H](c1ccccc1)c1ccc(F)cc1)Nc1cncc(F)c1CC[C@@H]1CN[C@H](c2nc3cc(F)c(F)cc3[nH]2)CO1           yes (1)
5  O=C(CC(c1ccc(F)cc1)c1ccc(F)cc1)Nc1cccc(F)c1CC[C@@H]1CN[C@H](c2nc3ccccc3[nH]2)CO1           yes (1)

[ask] For this molecule, is measured pIC50 9 or higher? O=C(CCc1ccccc1Cl)Nc1cccc(F)c1CC[C@@H]1CN[C@H](c2nc3ccccc3[nH]2)CO1
[reply] no (0)

[ask] Quick check, pIC50 >= 9? COC(=O)N[C@H](C(=O)Nc1ccccc1CC[C@@H]1CN[C@H](c2nnc(C)[nH]2)CO1)C(c1ccccc1)c1ccccc1
[reply] no (0)

[ask] Form field: pIC50 at least 9? Entry: COC(=O)N[C@H](C(=O)Nc1ccccc1CC[C@@H]1CN[C@H](c2nc3cc(C)c(C)cc3[nH]2)CO1)C(c1ccccc1)c1ccccc1
[reply] yes (1)

[ask] Please indicate if the recorded pIC50 for Cc1cc2nc([C@@H]3CO[C@H](CCc4cc[nH]c(=O)c4NC(=O)[C@@H](N)C(c4ccccc4)c4ccccc4)CN3)[nH]c2cc1C meets or exceeds 9.
[reply] yes (1)
